For each entry below, report its GI50 value.
Tested on: BT-549 breast
assay.overview: NCI tumour cell line growth inhibition, 48 h

compound: CC(=O)[C@H]1CCC/C=C/[C@@H]2C[C@H](O)C[C@H]2[C@H](O)/C=C/C(=O)O1
GI50: 0.657 µM

compound: COc1cccc(Nc2nc3ccccc3c3occc23)c1
GI50: 10.4 µM

compound: CSc1nc2c(c(=O)n1C)CN(C1CCCCC1)C(=O)C(c1ccccc1)N2 (stereo not drawn)
GI50: 13.2 µM

compound: CCOc1ccn(-c2ccc(F)cc2)c(=O)c1C(=O)Nc1ccc(Oc2ccnc(N)c2Cl)c(F)c1
GI50: 13.8 µM

Record GI50 for all entries; do not skip any.
1. CO[C@H]1CC(O[C@@H]2/C(C)=C/C[C@@H]3C[C@@H](C[C@]4(CC[C@H](C)[C@@H](C5CCCCC5)O4)O3)OC(=O)[C@@H]3C=C(C)/C(=N/O)[C@H]4OC/C(=C\C=C\[C@@H]2C)[C@]43O)O[C@@H](C)C1O (stereo partly drawn)
2. Nc1nc(/C=C\c2ccccc2)nc(N2CCN(c3ccccc3)CC2)n1
3. Cc1cc(Nc2nc(N[C@@H](C)c3ncc(F)cn3)ncc2Cl)n[nH]1
4. CC(=O)N1N=C(c2ccc(Nc3nc(Nc4ccc(F)cc4)nc(Nc4ccc(F)cc4)n3)cc2)CC1c1ccc(N(C)C)cc1 (stereo not drawn)

Resp:
1: 1.17 µM; 2: 45 µM; 3: 9.81 µM; 4: 11 µM

* * *

System: HOP-62 NSCLC
assay.overview: NCI tumour cell line growth inhibition, 48 h
For each entry below, report its TGI value.

Please review the entries below; each comes with its answer.
molecule: CC(=O)C1=C(O)C=C2Oc3c(C(=O)/C=C/c4cc(Cl)cc(Cl)c4)c(O)c(C)c(O)c3[C@]2(C)C1=O
TGI: 1.67 µM

molecule: CCc1ccc(COC(=O)C2=C(C)NC(C)=C(C(=O)OCc3ccc(CC)cn3)C2C2=COCCO2)nc1
TGI: 37.8 µM

molecule: O=C(NNC(=S)NC1CCCCC1)C12CC3CC(CC(C3)C1)C2
TGI: > 100 µM

molecule: CCOC(=O)c1nc2ccc(C(F)(F)F)cc2nc1NCc1ccc(OC)c(OC)c1
TGI: > 100 µM

molecule: Cc1cc(Nc2cc(N3CCN(C)CC3)nc(/C=C/c3ccccc3)n2)n[nH]1
TGI: > 3.98 µM

molecule: CC(=O)OCC(=O)OC[C@H](OCc1ccccc1)[C@@H]1[C@H](OC(C)=O)C(=O)N1Cc1ccccc1
TGI: > 100 µM

molecule: CN(C)c1c(C2OC(CO)C(O)C2O)c(=O)c1=O (stereo not given)
TGI: > 100 µM

molecule: COC(=O)c1oc2c(C(=O)/C=C/c3ccc(OC)cc3)c(OCCN(C)C)ccc2c1C
TGI: 38.7 µM

Record TGI for all entries; do not skip any.
1. O=C1c2ccccc2-c2c1c1ccccc1c(=O)n2CCCNCCn1c2c(c3ccccc3c1=O)C(=O)c1ccccc1-2
2. COC(=O)C1=CC2C=CC(C1C(=O)OC)C1C(C(=O)OC)=C(C(=O)OC)C(C(=O)OC)=C(C(=O)OC)C21OC (stereo not given)
3. COc1cccc(C2SC(N)=Nc3c2c(C)nn3C(=O)Cc2ccccc2)c1 (stereo not given)
4. Clc1cccc(-c2nnc(-c3nn(-c4ccccc4)c4nc5ccccc5nc34)o2)c1
5. NC1=NN(c2ccccc2)C(=O)C1C(=O)C(=O)Nc1ccc(Cl)c(Cl)c1 (stereo not given)
6. CCCCCc1c(CCCC)c(=O)[nH]c2nc(NC(=O)CCCC)ccc12
7. [B-][P+](CC[P+]1([B-])[C@@H](C)[C@@H](O)[C@H](O)[C@@H]1C)(c1ccccc1)c1ccccc1OC (stereo not given in full)
8. COc1cccc(C2c3cc4c(cc3OC(NNS(=O)(=O)c3ccc(C)cc3)C2C)OCO4)c1OC (stereo not given)

Resp:
25.3 µM
> 100 µM
> 100 µM
> 100 µM
> 100 µM
> 100 µM
33.6 µM
9.06 µM

Record TGI for all entries; do not skip any.
1. COc1ccc(-c2c3c(n(C4OC(CO)C(O)C(O)C4O)c(=S)c2C#N)CCCC3)cc1 (stereo not given)
2. COc1cc(C2c3cc4c(cc3C(OC(=O)C[n+]3ccccc3)C3COC(=O)C23)OCO4)cc(OC)c1OC (stereo not given)
3. C=CCc1c(O)c2nsnc2c2nsnc12
4. CC1NC(=O)C2=C1C(=O)NC(=O)C2 (stereo not given)

Resp:
> 100 µM
> 100 µM
> 10 µM
> 100 µM

* * *

Tested on: NCI-H460 lung
Answer with one of the outcomes given here: y = active, n = inactive

Req: What classification did Cc1cc(Nc2cc(N3CCN(C)CC3)nc(/C=C/c3ccccc3)n2)n[nH]1 end up with in this test?
Resp: y

Req: What classification did Nc1nc(/C=C\c2ccccc2)nc(N2CCN(c3ccccc3)CC2)n1 end up with in this test?
Resp: n

Req: What classification did CCCCCCCC/C=C/CCCCCCCC1=NC(C)(C)CN1CCO end up with in this test?
Resp: n

Req: What classification did CC(=O)[CH-]C(=O)c1ccccc1.CC(=O)[CH-]C(=O)c1ccccc1.O=S(=O)([O-])c1cc([O-])c2c([O-])cc(S(=O)(=O)[O-])cc2c1.[Na+].[Zr+4] end up with in this test?
Resp: n

Req: What classification did CC1NC(=O)C2=C1C(=O)NC(=O)C2 (centres undefined) end up with in this test?
Resp: n

Req: What classification did Cc1cc(-c2cc(O)ccc2Cl)cc2nnc(Nc3ccc(OCCN4CCCC4)cc3)nc12 end up with in this test?
Resp: n

Req: What classification did Cc1cc2c(-c3nc4ccccn4c3N)c(O)c(O)cc2c(O)c1-c1c(C)cc2c(-c3nc4ccccn4c3N)c(O)c(O)cc2c1O end up with in this test?
Resp: y

Req: What classification did CCCCCCCCCC[C@H](O)[C@H](O)CC[C@@H](O)[C@H]1CC[C@@H]([C@H]2CC[C@H](CCCCCCC[C@@H](O)CC3=C[C@H](C)OC3=O)O2)O1 end up with in this test?
Resp: y

Req: What classification did Cn1cc(-c2cnn3c(N)c(Br)c(C4CCCNC4)nc23)cn1 (centres undefined) end up with in this test?
Resp: n

* * *

System: SN12C renal
assay.overview: NCI tumour cell line growth inhibition, 48 h
measured.property: TGI

Please review the entries below; each comes with its answer.
molecule: Cc1cc(C)c(-c2noc(-c3ccc(Cl)cc3)c2C2=NCCCN2)c(C)c1
measured.property: TGI
result: 82.6 µM
//
molecule: CCOC(=O)/C(=N/Nc1ccccc1)N1C(=S)C=C(C)NN(C)C1=S
measured.property: TGI
result: > 100 µM
//
molecule: CC1=CC(C)(C)NN1C1=NS(=O)(=O)c2ccccc2N1C
measured.property: TGI
result: > 100 µM

Record TGI for all entries; do not skip any.
1. O=C1Nc2nccnc2C(=O)N2CCC[C@@H]12
2. Clc1ccc(CCN[C@H]2CCCC[C@H]2N2CCCC2)cc1Cl

Resp:
["> 100 µM", "54.3 µM"]

Record TGI for all entries; do not skip any.
1. O=C1c2ccccc2C2CCC1c1ccccc12 (stereo unspecified)
2. CCCCCC/C=C\CCCCCCCCCC1=C(CN2CCN(C)CC2)C(=O)C=C(OC)C1=O
3. COC(=O)C1C(=O)O[C@@H](c2cc(OC)c(OC)cc2OC)C1C(=O)OC (mixture of isomers)

Resp:
1. > 100 µM
2. 19.7 µM
3. > 100 µM

Record TGI for all entries; do not skip any.
1. COc1cccc(Nc2nc3ccccc3c3occc23)c1
2. Cc1ccc2nc(C(C)C)c(=O)[nH]c2c1

Resp:
1: 35.1 µM; 2: > 100 µM

Record TGI for all entries; do not skip any.
1. CSc1nc2c(c(=O)n1C)N=C(c1ccc([N+](=O)[O-])cc1)CC(c1ccccc1)N2 (stereo unspecified)
2. Nc1c(Cl)ncnc1NCCCCCCCCCCCCNc1ncnc(Cl)c1N
3. CCOc1ccn(-c2ccc(F)cc2)c(=O)c1C(=O)Nc1ccc(Oc2ccnc(N)c2Cl)c(F)c1
4. O=C1C=CC(=O)c2c(O)c3c(c(O)c21)C[C@H](O)[C@H](O)[C@@H]3O
5. Cc1cn(Cc2ccc(C34CC5CC(CC(C5)C3)C4)c(O)c2)c(=O)[nH]c1=O
6. COC(=O)c1oc2c(C(=O)/C=C/c3ccc(OC)cc3)c(OCCN(C)C)ccc2c1C
7. COc1c(-c2ccccc2)nc2ccc(Oc3ccccc3)nn12
8. CC1=CC[C@@]2(C)CC[C@](O)(C(C)C)C2C(OC(=O)c2ccccc2)C1 (stereo partly specified)

Resp:
["> 100 µM", "39.6 µM", "> 100 µM", "3.82 µM", "25.4 µM", "20.4 µM", "> 100 µM", "44.9 µM"]

Record TGI for all entries; do not skip any.
1. Cc1cc(=O)oc2cc(OCC(O)COC(C)C)ccc12 (stereo unspecified)
2. CCCCCCCCCC[C@H](O)[C@H](O)CC[C@@H](O)[C@H]1CC[C@@H]([C@H]2CC[C@H](CCCCCCC[C@@H](O)CC3=C[C@H](C)OC3=O)O2)O1
3. CCN(Cc1cccc(Cl)c1)c1ccc(CO)c(Cl)c1

Resp:
1: > 100 µM; 2: 74.8 µM; 3: 27.3 µM

Reference for the values: PubChem BioAssay (NCI)
